target: rhAngiostatin (Homo sapiens); construct: rh-Angiostatin and rh-Endostatin were produced by EntreMed, Inc; purchased EntreMed, Inc. (Rockville, Md.); experiment: Panning of CX7C phage library on rhAngiostatin (clone frequency); assay type: binding; conditions: clones sequenced after panning on rhAngiostatin
Sequence (P00747 79-466 limits assumed): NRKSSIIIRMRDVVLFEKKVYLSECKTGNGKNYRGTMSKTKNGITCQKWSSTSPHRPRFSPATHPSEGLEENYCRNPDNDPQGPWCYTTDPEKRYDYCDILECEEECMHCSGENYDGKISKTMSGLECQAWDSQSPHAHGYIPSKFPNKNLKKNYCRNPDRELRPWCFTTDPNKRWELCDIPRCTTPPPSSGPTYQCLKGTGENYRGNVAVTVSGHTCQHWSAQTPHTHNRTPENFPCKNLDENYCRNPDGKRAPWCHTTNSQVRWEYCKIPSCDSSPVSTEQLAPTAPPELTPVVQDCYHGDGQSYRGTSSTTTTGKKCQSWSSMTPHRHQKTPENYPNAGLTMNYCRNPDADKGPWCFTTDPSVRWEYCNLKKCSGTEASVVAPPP
Parameter: frequency

## Task Specify measured frequency for CWSLELSKC .
## Result 10/42

## Task Specify measured frequency for CVAADRYVC .
## Result 1/42

## Task Specify measured frequency for CGGREFWLC .
## Result 1/42

## Task Specify measured frequency for CWSLESLKC .
## Result 4/42

## Task Specify measured frequency for CRWSSMIWC .
## Result 1/42

## Task Specify measured frequency for CLAWVGGRC .
## Result 1/42

## Task Specify measured frequency for CRVLADRDC .
## Result 1/42

## Task Specify measured frequency for CSLQGIVGC .
## Result 1/42

## Task Specify measured frequency for CWSAEWTKC .
## Result 4/42

## Task Specify measured frequency for CWSLEVAKC .
## Result 5/42

## Task Specify measured frequency for CYGAWRVSC .
## Result 1/42

## Task Specify measured frequency for CGVVSRVGC .
## Result 1/42

## Task Specify measured frequency for CSRSVSRLC .
## Result 1/42

## Task Specify measured frequency for CWSLELLKC .
## Result 2/42

## Task Specify measured frequency for CQGKFSQRC .
## Result 1/42

## Task Specify measured frequency for CWSLEFTKC .
## Result 5/42
